- Organism: Rattus norvegicus
- experiment: Open TG-GATES - Regimen: Daily Repeat
- Type: toxicity, organism-based, Sprague-Dawley
- Design: regimen Daily Repeat, gender Male, age 6 weeks
- testConditions: in vivo, po, 1000 mg/kg, […], tissue Plasma, route gavage, dose level High, time 28 day
readoutLabel: TC (mg/dL)
Write down the numeric answer in mg/dL and omit the unit.

The following compounds have reported results that may help.
                                   compound  readoutlabel  testvalue
0  O=C(N[C@H](CO)[C@H](O)c1ccc([N+](=O)[O-])cc1)C(Cl)Cl [CHLORAMPHENICOL]            TC       57.8
1                   O=C(O)c1cccnc1 [NIACIN]            TC       68.4
2  CCN1CCCC1CNC(=O)c1cc(S(N)(=O)=O)ccc1OC (centres undefined) [SULPIRIDE]            TC       66.2

IN: What value of measured TC is listed for CC(C)(S)[C@@H](N)C(=O)O [PENICILLAMINE] ?
OUT: 77.2

---

- Species on record: Rattus norvegicus
- experiment: Open TG-GATES - Regimen: Daily Repeat
- Assay type: toxicity, organism-based, Sprague-Dawley
- Design: regimen Daily Repeat, gender Male, age 6 weeks
- testConditions: in vivo, po, 0 mg/kg, […], tissue Plasma, route gavage, dose level Control, time 14 day
Each entry below carries its reported RALB.
Write down the numeric answer in g/dL and omit the unit.

The following compounds have reported results that may help.
In [3]: df
Out[3]:
                                   compound  testvalue
0  CCN1CCCC1CNC(=O)c1cc(S(N)(=O)=O)ccc1OC (stereo not given) [SULPIRIDE]        2.6
1         CC(=O)Oc1cc(C(C)C)c(OCCN(C)C)cc1C        3.1
2     CCc1oc2ccccc2c1C(=O)c1cc(I)c(O)c(I)c1        3.7

IN: What value of measured RALB is listed for CN1C(=O)OC(C)(C)C1=O ?
OUT: 2.7

IN: Now try Nc1nc(N)c2nc(-c3ccccc3)c(N)nc2n1 .
OUT: 2.7

---

- Organism: Rattus norvegicus
- experiment: Open TG-GATES - Regimen: Single
- Type: toxicity, organism-based, Sprague-Dawley
- Design: regimen Single, gender Male, age 6 weeks
- testConditions: in vivo, po, 0 mg/kg, 9 h, tissue Plasma, route gavage, dose level Control
Each entry below carries its reported Na.
Write down the numeric answer in meq/L and omit the unit.

The following compounds have reported results that may help.
                                   compound  testvalue
0  CCN1CCCC1CNC(=O)c1cc(S(N)(=O)=O)ccc1OC (stereo unspecified) [SULPIRIDE]      141.4
1  O=C(N[C@H](CO)[C@H](O)c1ccc([N+](=O)[O-])cc1)C(Cl)Cl      140.6
2           C[C@](N)(Cc1ccc(O)c(O)c1)C(=O)O      143.2
3          Nc1nc(N)c2nc(-c3ccccc3)c(N)nc2n1      143.6

IN: What value of measured Na is listed for C[C@]12CCC(=O)C=C1CC[C@@H]1[C@@H]2CC[C@@]2(C)[C@H]1CC[C@]2(C)O ?
OUT: 141

IN: Now try Oc1ncnc2[nH]ncc12 .
OUT: 139.2

---

- Species: Rattus norvegicus
- experiment: Open TG-GATES - Regimen: Daily Repeat
- Assay type: toxicity, organism-based, Sprague-Dawley
- Design: regimen Daily Repeat, gender Male, age 6 weeks
- testConditions: in vivo, po, 100 mg/kg, […], tissue Plasma, route gavage, dose level Low, time 28 day
Each entry below carries its reported TP.
Write down the numeric answer in g/dL and omit the unit.

The following compounds have reported results that may help.
In [3]: df
Out[3]:
                                   compound  testvalue
0  CCN1CCCC1CNC(=O)c1cc(S(N)(=O)=O)ccc1OC (centres undefined) [SULPIRIDE]        6.2
1  O=C(N[C@H](CO)[C@H](O)c1ccc([N+](=O)[O-])cc1)C(Cl)Cl        6.2
2                            O=C(O)c1cccnc1          6

Proceeding to the next compound to report its TP.
IN: What value of measured TP is listed for CC(C)(S)[C@@H](N)C(=O)O ?
OUT: 6.3

---

- Species on record: Rattus norvegicus
- experiment: Open TG-GATES - Regimen: Single
- Format: toxicity, organism-based, Sprague-Dawley
- Parameters: regimen Single, gender Male, age 6 weeks
- testConditions: in vivo, po, 0 mg/kg, 9 h, tissue Plasma, route gavage, dose level Control
IP of 10 mg/dL or higher: 1. Under 10 mg/dL: 0.

>>> df
                                   compound  classification
0          Nc1nc(N)c2nc(-c3ccccc3)c(N)nc2n1               0
1                            O=C(O)c1cccnc1               0
2  O=C(N[C@H](CO)[C@H](O)c1ccc([N+](=O)[O-])cc1)C(Cl)Cl               1

IN: Please indicate if the recorded IP for CC(C)C(=O)Nc1ccc([N+](=O)[O-])c(C(F)(F)F)c1 [FLUTAMIDE] meets or exceeds 10 mg/dL.
OUT: 1

IN: Now try C[C@]12CCC(=O)C=C1CC[C@@H]1[C@@H]2CC[C@@]2(C)[C@H]1CC[C@]2(C)O .
OUT: 1

IN: Now try CCSCC[C@H](N)C(=O)O .
OUT: 0

IN: Now try Oc1ncnc2[nH]ncc12 .
OUT: 1

IN: Now try C#C[C@]1(O)CC[C@H]2[C@@H]3CCc4cc(O)ccc4[C@H]3CC[C@@]21C .
OUT: 1

IN: Now try CC(=O)Oc1cc(C(C)C)c(OCCN(C)C)cc1C .
OUT: 0

IN: Now try C[C@](N)(Cc1ccc(O)c(O)c1)C(=O)O .
OUT: 1

IN: Now try CCc1oc2ccccc2c1C(=O)c1cc(I)c(O)c(I)c1 .
OUT: 1

IN: Now try CCC(C)(C)C(=O)O[C@H]1C[C@@H](C)C=C2C=C[C@H](C)[C@H](CC[C@@H]3C[C@@H](O)CC(=O)O3)[C@H]21 .
OUT: 1

IN: Now try CN1C(=O)OC(C)(C)C1=O .
OUT: 0

---

- Organism: Rattus norvegicus
- experiment: Open TG-GATES - Regimen: Daily Repeat
- Assay type: toxicity, organism-based, Sprague-Dawley
- Design: regimen Daily Repeat, gender Male, age 6 weeks
- testConditions: in vivo, po, 0 mg/kg, […], tissue Kidney, route gavage, dose level Control, time 28 day
Each entry below carries its reported KIDNEY_R.
Write down the numeric answer in g and omit the unit.

The following compounds have reported results that may help.
In [3]: df
Out[3]:
                                   compound  readoutlabel  measureunit  testvalue
0  C#C[C@]1(O)CC[C@H]2[C@@H]3CCc4cc(O)ccc4[C@H]3CC[C@@]21C [ETHINYL ESTRADIOL]      KIDNEY_R            g        1.4
1  CCN1CCCC1CNC(=O)c1cc(S(N)(=O)=O)ccc1OC (stereo not given) [SULPIRIDE]      KIDNEY_R            g        1.2
2           Oc1ncnc2[nH]ncc12 [ALLOPURINOL]      KIDNEY_R            g        1.4
3          Nc1nc(N)c2nc(-c3ccccc3)c(N)nc2n1      KIDNEY_R            g        1.4
4                   CC(=N)S [THIOACETAMIDE]      KIDNEY_R            g        1.4
5           CCSCC[C@H](N)C(=O)O [ETHIONINE]      KIDNEY_R            g        1.5
6      CN1C(=O)OC(C)(C)C1=O [TRIMETHADIONE]      KIDNEY_R            g        1.5
7  CC(C)C(=O)Nc1ccc([N+](=O)[O-])c(C(F)(F)F)c1 [FLUTAMIDE]      KIDNEY_R            g        1.3

IN: What value of measured KIDNEY_R is listed for CCC(C)(C)C(=O)O[C@H]1C[C@@H](C)C=C2C=C[C@H](C)[C@H](CC[C@@H]3C[C@@H](O)CC(=O)O3)[C@H]21 [SIMVASTATIN] ?
OUT: 1.4

IN: Now try O=C(N[C@H](CO)[C@H](O)c1ccc([N+](=O)[O-])cc1)C(Cl)Cl [CHLORAMPHENICOL] .
OUT: 1.4
